Assay: qHTS of pediatric cancer cell lines to identify multiple opportunities for drug repurposing: Confirmatory screen for Rh41 cells (AID 1347123);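 note: 48 h compound exposure; nearly all actives have a fitted effect of over 60% in size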
Conditions: Rh41 rhabdomyosarcoma cells, viability/cytotoxicity qHTS; series mostly up to 45.9 µM
Records with an inconclusive call do not appear. Active and inactive are the calls of the source. Calls come from the whole dose curve; as a rule, active = well fitted cell-killing curve with a large enough effect; inconclusive = small, poorly fitted or top-dose-only effect; inactive = no such curve, though single readings can be large or run the other way.
Respond with a class label; see 1 (active), 0 (inactive)

**Query** Each molecule tested received a call. Report the one for COc1ccc(C=Cc2cc(OC)c(OC)c(OC)c2)cc1O .
**Result** 1

====

System: CP238
Experiment: qHTS profiling for inhibitors of Plasmodium falciparum proliferation (AID 504749); note: nearly all actives have a fitted effect of over 60% in size
Details: P. falciparum in erythrocytes, SYBR Green DNA, 72 h; series mostly up to 28.7 µM
Records with an inconclusive call do not appear. Active and inactive are the calls of the source. The call rests on the fitted dose curve; in most records, active means well fitted inhibition curve with a large enough effect; inconclusive means small, poorly fitted or top-dose-only effect; inactive means flat fitted curve, though single readings scatter.
Respond with a class label; see class 1 = active, class 0 = inactive

Record excerpt, results attached:
COMPOUND	ASSAYED_TARGET	GROUP_LABEL
CCC1=C[C@@H]2CN(C1)Cc1c([nH]c3ccccc13)[C@@](C(=O)OC)(c1cc3c(cc1OC)N(C)[C@@H]1[C@@](O)(C(=O)OC)[C@H](OC(C)=O)[C@]4(CC)C=CCN5CC[C@]31[C@@H]54)C2	CP238	class 1
Nc1ccn([C@@H]2CS[C@H](CO)O2)c(=O)n1	CP238	class 0
O=C(O)CO.[NH2-].[NH2-].[Pt+2]	CP238	class 0
CN1c2cc(O)c(N=NC(N)=O)cc2CC1S(=O)(=O)O (configuration not stated)	CP238	class 0
COC(=O)C[C@](O)(CCCC(C)(C)O)C(=O)O[C@@H]1C(OC)=C[C@]23CCCN2CCc2cc4c(cc2[C@H]13)OCO4	CP238	class 1
COc1c(N2C[C@@H]3CCCN[C@H]3C2)c(F)cc2c(=O)c(C(=O)O)cn(C3CC3)c12	CP238	class 0

**Query** Each compound tested received a call. Report the one for Nc1ccc(S(=O)(=O)Nc2ncccn2)cc1 .
**Result** class 0
